QUANTITY KIND: melting point

// CCOc1ccc2c(c1)n(C1CCCCC1)c(=O)n2Cc1ccc(C(=O)NC(C)(C)C)cc1OC : melting point value = 186 °C

// COc1cccc(Oc2c(NS(=O)(=O)c3ccc(C(C)(C)C)cc3)nc(C(=O)Nc3ccccc3)nc2OCCO)c1 : melting point value = 143 °C

// COCN1C(C)=C(C(=O)OCc2ccccc2)C(c2ccccc2C(F)(F)F)C(C(=O)OCc2ccccc2)=C1C : melting point value = 94 to 95 °C

// CC(=O)c1ncn(-c2ccccc2)n1 : melting point value = 174 to 176 °C

// CCCc1c(OCC(O)COc2ccc3c(=O)cc(C(=O)O)sc3c2CCC)ccc(C(C)=O)c1O (centres undefined) : melting point value = 280 to 281 °C

// COC(=O)C(C)(C)Cc1ccc(CC(C)(C)C(=O)OC)cc1 : melting point value = 74 to 76 °C

// CCC1=NNC(C)=C(C(=O)OC(C)C)C1c1cccc([N+](=O)[O-])c1 (centres undefined) : melting point value = 108 °C

// Cc1ccc(-c2c(-c3ccc(S(N)(=O)=O)cc3)cnn(-c3ccc(F)cc3)c2=O)cc1F : melting point value = 187 to 188 °C

// CCOC(=O)C1=CCCCC1S(=O)(=O)Nn1cccc1 (centres undefined) : melting point value = 85 to 86 °C

* * *

Consider the following compounds; for each one, report its melting point.

// Cc1c(C(=O)O)oc2cc(-c3ccc(Cn4c(C)nc5ccccc54)cc3)ccc12 : melting point value = 295 to 297 °C

// Clc1ccc(Cl)c(-c2csc(NC3=NCCCN3)n2)c1 : melting point value = 188 to 189 °C

// CS(=O)(=O)c1nccn1CC(=O)O : melting point value = 218 to 219 °C

// Cn1c(C(F)(F)F)cc(=O)n(-c2cc(OCCOC=C(Cl)Cl)c(Cl)cc2F)c1=O : melting point value = 97 to 99 °C

// CCCCc1cn(CCCC)c(=O)n1Cc1ccc(-c2cnccc2-c2nnn[nH]2)cc1 : melting point value = 128 to 130 °C

* * *

Consider the following compounds; for each one, report its melting point.

// COc1cc(-c2ncc(S(C)=O)cc2Cl)c(F)cc1Cl (stereo not given) : melting point value = 117 to 118 °C

// COc1ccc(-c2cc(=S)n(Cc3cccnc3)nc2-c2ccc(OC)cc2)cc1 : melting point value = 163 to 164 °C

// Cc1ccc([N+](=O)[O-])c2c1CCN2 : melting point value = 125 to 127 °C

// Nc1cccc(-c2ccc(C3(O)C4CCC3CN(Cc3ccco3)C4)cc2)n1 (stereo not given) : melting point value = 187 to 202 °C

// COC=C(C(=O)OC)n1ccc2ccc(-c3csc(-c4ccccc4)n3)cc21 : melting point value = 145 to 146 °C

// Cc1ccc(S(N)(=O)=O)cc1-c1nc(C(F)(F)F)oc1-c1ccccc1 : melting point value = 150 to 151 °C

// Cn1c(=O)c(C#N)c(N2CCNCC2)c2cc(Cl)ccc21 : melting point value = 223 °C

// CCCCC1(O)C(C)=CC(=O)CC1(C)C (stereo not given) : melting point value = 90 to 93 °C

// Cc1nc(-c2c(F)cccc2F)nn1-c1ccccc1C(F)(F)F : melting point value = 80 to 82 °C

// CN1C(=O)C2C3C=CC(CC3)C2(c2ccc(F)c(F)c2)C1=O (stereo not given) : melting point value = 125 to 127 °C

// COc1ccc(C(=O)C2CCN(C3CN(C(=O)c4ccccc4)CCC3O)CC2)cc1 (stereo not given) : melting point value = 114 to 115 °C

// Cc1cc([N+](=O)[O-])cnc1NCCCN : melting point value = 93 to 95 °C

// O=C(Nc1ccc(C(=O)N2Cc3cccn3-c3ccccc32)cc1)c1cccc(Cl)c1Cl : melting point value = 230 to 240 °C

// CC(C)(C(N)=O)c1cn2nc(Cl)ccc2n1 : melting point value = 194 to 195 °C

// CC(=O)OC1CSC(Oc2cncc(-c3ccncc3Cl)c2)C(OC(C)=O)C1OC(C)=O (stereo not given) : melting point value = 175 °C

// Cc1c(-c2ccc(C3=CCN(C(=O)OC(C)(C)C)CC3)cc2)nc2n1CCc1ccccc1C2OC1CCN(C)CC1 (stereo not given) : melting point value = 171 °C

// Nc1cc(S(=O)(=O)C(F)(F)F)cc(Cl)c1N : melting point value = 143 to 145 °C

// CC(=O)N1CCN(c2cc3nc(C(C)(C)C)sc3cc2N=C=S)CC1 : melting point value = 100 to 102 °C

// CC(C)(C)c1ccc2ncc(C(=O)NCc3ccc(Cl)cc3)c(O)c2c1 : melting point value = 266 °C

// COc1ccc(-c2[nH]nc3c2C(=O)c2c(NC(=O)C(C)C)cccc2-3)cc1 : melting point value = 288 °C
